- Assay Explanation: Metabolic stability in mouse liver microsomes
- Type: in vitro ADME
- Parameters: dose or concentration left out as unconfirmed
- Measurement Context: calculated, read-out: Intrinsic liver clearance rate CLint Mouse
Form field: CLint scaled (one value per entry).
Quantity Name: CLint scaled (mL/min/kg)

1) C[C@H]1[C@H](N2C=CS(=O)(=O)CC2)O[C@@H]2O[C@@]3(C)CC[C@H]4[C@H](C)CC[C@@H]1[C@@]24OO3 [M1 12]
37.4
2) C[C@H]1[C@H](N2CCSCC2)O[C@@H]2O[C@@]3(C)CC[C@H]4[C@H](C)CC[C@@H]1[C@@]24OO3 [Artemiside 5, artemiside]
551
3) C[C@@H]1CC[C@H]2[C@@H](C)C(=O)N[C@@H]3O[C@@]4(C)CC[C@@H]1[C@]32OO4 [11-Aza-artemisinin 11, 11-aza-artemisinin]
36.4

----------
- Assay Explanation: Metabolic stability in pooled human liver microsomes
- Measurement Context: human, microsomes
Quantity Name: half-life at 0.4 mM

1. CO[C@H]1O[C@@H]2O[C@@]3(C)CC[C@H]4[C@H](C)CC[C@@H]([C@H]1C)[C@@]24OO3 [Artemether 3, artemether]
12.5 min

----------
- Assay Explanation: Pharmacokinetics in mice, oral administration
- Format: in vivo, male C57/BL6 mice
- Measurement Context: male, C57/BL6, mouse, plasma, po; p.o. 50 mg/kg, parent
Measured Tmax, listed per entry for reference.
Quantity Name: Tmax (min)

1) C[C@H]1[C@H](N2CCS(=O)(=O)CC2)O[C@@H]2O[C@@]3(C)CC[C@H]4[C@H](C)CC[C@@H]1[C@@]24OO3
18
2) CO[C@H]1O[C@@H]2O[C@@]3(C)CC[C@H]4[C@H](C)CC[C@@H]([C@H]1C)[C@@]24OO3
6
3) C[C@H]1[C@H](N2CCSCC2)O[C@@H]2O[C@@]3(C)CC[C@H]4[C@H](C)CC[C@@H]1[C@@]24OO3 [Artemiside 5, artemiside]
60
4) C[C@@H]1CC[C@H]2[C@@H](C)C(=O)N[C@@H]3O[C@@]4(C)CC[C@@H]1[C@]32OO4
30
5) C[C@H]1[C@H](N2CCN(C(=O)Nc3ccc(F)cc3)CC2)O[C@@H]2O[C@@]3(C)CC[C@H]4[C@H](C)CC[C@@H]1[C@@]24OO3
30
6) C[C@H]1[C@H](NS(N)(=O)=O)O[C@@H]2O[C@@]3(C)CC[C@H]4[C@H](C)CC[C@@H]1[C@@]24OO3 [Sulfamide 7]
36

----------
- Assay Explanation: Pharmacokinetics in mice, oral administration
- Assay type: in vivo, male C57/BL6 mice
- Measurement Context: p.o. 50 mg/kg, 0 h to last, parent
Quantity Name: log10(AUC) (log10 of the value in min/µmol/L)

1) C[C@@H]1CC[C@H]2[C@@H](C)C(=O)N[C@@H]3O[C@@]4(C)CC[C@@H]1[C@]32OO4
2.19
2) CO[C@H]1O[C@@H]2O[C@@]3(C)CC[C@H]4[C@H](C)CC[C@@H]([C@H]1C)[C@@]24OO3
1.51
3) C[C@H]1[C@H](N2CCS(=O)(=O)CC2)O[C@@H]2O[C@@]3(C)CC[C@H]4[C@H](C)CC[C@@H]1[C@@]24OO3
2.97
4) C[C@H]1[C@H](N2CCN(C(=O)Nc3ccc(F)cc3)CC2)O[C@@H]2O[C@@]3(C)CC[C@H]4[C@H](C)CC[C@@H]1[C@@]24OO3
2.44
5) C[C@H]1[C@H](N2CCSCC2)O[C@@H]2O[C@@]3(C)CC[C@H]4[C@H](C)CC[C@@H]1[C@@]24OO3 [Artemiside 5, artemiside]
0.98

----------
- Assay Explanation: Kinetic solubility
- Type: physicochemical
- Measurement Context: pH 2 solution (HCl in water), 22 °C, pH 2, kinetic from dmso stock; read-out: Solubility pH 2
// values below are reported solubility at 2 h
Quantity Name: solubility at 2 h

1) C[C@@H]1CC[C@H]2[C@@H](C)C(=O)N[C@@H]3O[C@@]4(C)CC[C@@H]1[C@]32OO4
> 150 µM
2) C[C@H]1[C@H](N2C=CS(=O)(=O)CC2)O[C@@H]2O[C@@]3(C)CC[C@H]4[C@H](C)CC[C@@H]1[C@@]24OO3
> 150 µM
3) C[C@H]1[C@H](NS(N)(=O)=O)O[C@@H]2O[C@@]3(C)CC[C@H]4[C@H](C)CC[C@@H]1[C@@]24OO3 [Sulfamide 7]
> 150 µM

----------
CLint scaled values, listed per item
- Assay Explanation: Metabolic stability in pooled human liver microsomes
- Design: dose or concentration left out as unconfirmed
- Measurement Context: human, pooled liver microsomes
Quantity Name: CLint scaled (mL/min/kg)

1. C[C@H]1[C@H](N2CCSCC2)O[C@@H]2O[C@@]3(C)CC[C@H]4[C@H](C)CC[C@@H]1[C@@]24OO3 [Artemiside 5, artemiside]
451
2. C[C@H]1[C@H](N2CCS(=O)(=O)CC2)O[C@@H]2O[C@@]3(C)CC[C@H]4[C@H](C)CC[C@@H]1[C@@]24OO3
243
3. C[C@H]1[C@@H](O)O[C@@H]2O[C@@]3(C)CC[C@H]4[C@H](C)CC[C@@H]1[C@@]24OO3 [DHA 2, dihydroartemisinin]
41.5

----------
- Assay Explanation: Metabolic stability in rat liver microsomes
- Type: in vitro ADME
- Set-up: dose or concentration left out as unconfirmed
- Measurement Context: calculated, read-out: Intrinsic liver clearance rate CLint Rat
Quantity Name: log10(CLint scaled) (log10 of the value in mL/min/kg)

1) CO[C@H]1O[C@@H]2O[C@@]3(C)CC[C@H]4[C@H](C)CC[C@@H]([C@H]1C)[C@@]24OO3
2.99
2) C[C@H]1[C@@H](O)O[C@@H]2O[C@@]3(C)CC[C@H]4[C@H](C)CC[C@@H]1[C@@]24OO3 [DHA 2, dihydroartemisinin]
1.54
3) C[C@@H]1CC[C@H]2[C@@H](C)C(=O)N[C@@H]3O[C@@]4(C)CC[C@@H]1[C@]32OO4
0.95
4) C[C@H]1[C@H](N2CCSCC2)O[C@@H]2O[C@@]3(C)CC[C@H]4[C@H](C)CC[C@@H]1[C@@]24OO3 [Artemiside 5, artemiside]
3.14
5) C[C@H]1[C@H](NS(N)(=O)=O)O[C@@H]2O[C@@]3(C)CC[C@H]4[C@H](C)CC[C@@H]1[C@@]24OO3 [Sulfamide 7]
1.52
6) C[C@H]1[C@H](N2C=CS(=O)(=O)CC2)O[C@@H]2O[C@@]3(C)CC[C@H]4[C@H](C)CC[C@@H]1[C@@]24OO3
2.03
7) C[C@H]1[C@H](N2CCS(=O)(=O)CC2)O[C@@H]2O[C@@]3(C)CC[C@H]4[C@H](C)CC[C@@H]1[C@@]24OO3
2.53

----------
- Assay Explanation: Kinetic solubility
- Type: physicochemical
- Measurement Context: pH 2, FaSSIF pH 6.5 and pH 7.4 together; read-out: Solubility in the three aqueous solutions
Quantity Name: solubility at 2 h

1. C[C@@H]1CC[C@H]2[C@@H](C)C(=O)N[C@@H]3O[C@@]4(C)CC[C@@H]1[C@]32OO4
> 144 µM

----------
- Assay Explanation: Metabolic stability in mouse liver microsomes
- Assay type: in vitro ADME
- Set-up: dose or concentration left out as unconfirmed
- Measurement Context: read-out: Microsomal half-life t1/2 Mouse
Item-by-item account of half-life
Quantity Name: half-life

1. C[C@H]1[C@@H](O)O[C@@H]2O[C@@]3(C)CC[C@H]4[C@H](C)CC[C@@H]1[C@@]24OO3 [DHA 2, dihydroartemisinin]
136 min
2. C[C@H]1[C@H](NS(N)(=O)=O)O[C@@H]2O[C@@]3(C)CC[C@H]4[C@H](C)CC[C@@H]1[C@@]24OO3 [Sulfamide 7]
> 150 min
3. C[C@H]1[C@H](N2CCSCC2)O[C@@H]2O[C@@]3(C)CC[C@H]4[C@H](C)CC[C@@H]1[C@@]24OO3 [Artemiside 5, artemiside]
12.4 min
4. C[C@H]1[C@H](N2CCS(=O)(=O)CC2)O[C@@H]2O[C@@]3(C)CC[C@H]4[C@H](C)CC[C@@H]1[C@@]24OO3
< 10 min
5. CO[C@H]1O[C@@H]2O[C@@]3(C)CC[C@H]4[C@H](C)CC[C@@H]([C@H]1C)[C@@]24OO3
17.4 min
6. C[C@H]1[C@H](N2CCN(C(=O)Nc3ccc(F)cc3)CC2)O[C@@H]2O[C@@]3(C)CC[C@H]4[C@H](C)CC[C@@H]1[C@@]24OO3
< 10 min
7. C[C@H]1[C@H](N2C=CS(=O)(=O)CC2)O[C@@H]2O[C@@]3(C)CC[C@H]4[C@H](C)CC[C@@H]1[C@@]24OO3
> 150 min
8. C[C@@H]1CC[C@H]2[C@@H](C)C(=O)N[C@@H]3O[C@@]4(C)CC[C@@H]1[C@]32OO4
> 150 min
